System: A549
measurement_description: NCI tumour cell line growth inhibition, 48 h
The source made the active and inactive calls. No stated cut-off is given here; in the data, active = GI50 up to about 1.1 µM and inactive = higher.
GI50 by entry:

COC(=O)CC(CC(=O)C(=O)OC)C(=O)OC (stereo unspecified)    > 100 µM (inactive)
Cc1ccc(-c2c(N)[n+]([O-])c3ccccc3[n+]2[O-])cc1    23.3 µM (inactive)
Cc1cc2c(c(C#N)c1C)NC(=O)C(CC(=O)O)C2=O (stereo unspecified)    > 100 µM (inactive)

Kindly note the recorded GI50 for COC(=O)c1cc2c(cc1CC(Cc1ccc3c(c1)CCC3)C(=O)OC)CCC2 (stereo unspecified) , which is 34 µM (inactive)

Kindly note the recorded GI50 for CCCCCCCCCCCCCCCCCCOP1(=O)OCCO1 , which is 79.4 µM (inactive)

Kindly note the recorded GI50 for COC(=O)C1CC2C=CC=CC(=O)C2(C)C1 (stereo unspecified) , which is > 100 µM (inactive)

* * *

System: M19-MEL
measurement_description: NCI tumour cell line growth inhibition, 48 h
Calls of active or inactive are those of the source. No stated cut-off is given here; in the data, active = GI50 up to about 1.1 µM and inactive = higher.
GI50 by entry:

Worked examples follow.
Cc1cccc(C(C)C)c1N1C(=O)C(=O)C(c2nc3ccccc3o2)C(=O)C1=O    55.3 µM (inactive)
Cc1nc(C(N)=S)sc1C(=O)CC(=O)C(=O)Nc1ccccc1[N+](=O)[O-]    > 100 µM (inactive)
COc1ccccc1/C=C1\C(=O)N(C(=O)Cc2ccccc2)N=C1C    > 100 µM (inactive)

Kindly note the recorded GI50 for Cc1ccc2[nH]c(Sc3c([N+](=O)[O-])ncn3C)nc2c1 , which is 18.5 µM (inactive)

Kindly note the recorded GI50 for Clc1ccc(C(c2ccc(Cl)cc2)c2ccccn2)cc1 , which is 31.4 µM (inactive)

* * *

Tested on: MOLT-4
measurement_description: NCI tumour cell line growth inhibition, 48 h
Activity calls are given as the source filed them. Cut-off read from the data, not from the text of the source: active = GI50 up to about 1.1 µM and inactive = higher.
Choose one outcome from this list and give only that: 1.0 (active), 0.0 (inactive)

COc1ccccc1C1C(Cl)C(=O)N1n1cnc2ccccc2c1=O (stereo not given)    0.0
CC(C)(C)c1cc(C(=O)O)c(C(c2ccccc2)c2ccccc2C(=O)O)c(C(=O)O)c1 (stereo not given)    0.0
O=P(Oc1ccccc1)(Oc1ccccc1)Oc1c[nH]c2ccccc12    0.0
CCCn1c(=O)c(N2CCN(c3ccccc3)CC2)nc2sc3ccccc3c21    0.0
O=NN1CCN=C1c1ccc([N+](=O)[O-])cc1    0.0
COC(=O)C1CC2C=CC=CC(=O)C2(C)C1 (stereo not given)    0.0
CCOC(=O)C(C(=O)OCC)=C1N[C@H](C(=O)OCC)CS1    0.0
CC12OC(=O)[C@@]3(O)CCC4C(C[C@H]5O[C@]56CC=CC(=O)[C@]46C)C45OC[C@H]6C(=O)O[C@@H]1C[C@@]6(C)[C@H](C4=O)C23O5 (stereo not given in full)    1.0

Please let me know the test result on file for NC(=S)N/N=C1\CCCC1C(O)(C(F)(F)Cl)C(F)(F)Cl (stereo not given) .
0.0

Please let me know the test result on file for COc1cc2c(cc1OC)C(=O)Cc1ccc(OC)c(OC)c1CN(C)CC2 .
0.0

* * *

System: BT-549
measurement_description: NCI tumour cell line growth inhibition, 48 h
Active and inactive are the calls of the source. No stated cut-off is given here; in the data, active = GI50 up to about 1.1 µM and inactive = higher.
observable: GI50

CC1(O)OC(=O)C2=C1CCC1C2CCC2(C)C(O)CCC12 (stereo unspecified)    > 100 µM (inactive)
CC1CC(c2ccccc2)Nc2nc3ccccc3n21 (stereo unspecified)    > 100 µM (inactive)
COc1ccc(-c2c(/C=N/OCC(=O)O)c3sc4ccccc4n3c2/C=N/OCC(=O)O)cc1    > 50 µM (inactive)
Cc1cc(NC(=S)SCc2ccc(F)cc2)c([N+](=O)[O-])cc1C    28.2 µM (inactive)
C#C[C@]1(O)CC[C@H]2[C@@H]3CCC4=C/C(=N/NC(=O)c5cccc6c(=O)c7ccccc7[nH]c56)CCC4[C@H]3CC[C@@]21C (stereo partly specified)    19.2 µM (inactive)
O=C(c1ccccc1)c1ccc2nc3n(c2c1)C(c1c(Cl)cccc1Cl)SC3 (stereo unspecified)    3.54 µM (inactive)

Kindly note the recorded GI50 for COP(=O)(OC)c1ccc(NCc2cc(O)ccc2O)cc1 , which is 17.9 µM (inactive)

Kindly note the recorded GI50 for O=C(O)c1ccc(Cc2ccccc2C(=O)O)cc1 , which is > 100 µM (inactive)

Kindly note the recorded GI50 for CCNC(=O)c1c(O)nc2ccccc2c1O , which is 78.2 µM (inactive)

Kindly note the recorded GI50 for O=c1c(-c2ccc(O)cc2)coc2cc(O)cc(O)c12 [GENISTEIN] , which is 88.3 µM (inactive)

Kindly note the recorded GI50 for CCC(Nc1ncnc2nc[nH]c12)C(=O)O (stereo unspecified) , which is > 100 µM (inactive)

* * *

Tested on: SK-OV-3
measurement_description: NCI tumour cell line growth inhibition, 48 h
Calls of active or inactive are those of the source. Cut-off read from the data, not from the text of the source: active = GI50 up to about 1.1 µM and inactive = higher.
observable: GI50

Worked examples follow.
O=C(/C=C/c1ccccc1)CSc1nc2ccc(I)cc2c(=O)n1Cc1ccccc1    29.6 µM (inactive)
COc1ccccc1Cc1nc(-c2ccccc2)nn(C2OC(COC(C)=O)C(OC(C)=O)C(OC(C)=O)C2OC(C)=O)c1=S (centres undefined)    36.7 µM (inactive)
COC(=O)C/N=C1\NC(=S)N(Cc2ccc(OC)cc2)C12CCCC2    > 100 µM (inactive)

Kindly note the recorded GI50 for Cc1ccc2[nH]c(Sc3c([N+](=O)[O-])ncn3C)nc2c1 , which is 30 µM (inactive)

Kindly note the recorded GI50 for Nc1ccccc1/N=C/c1cc2cc([N+](=O)[O-])ccc2s1 , which is 13.9 µM (inactive)

* * *

Tested on: ACHN
measurement_description: NCI tumour cell line growth inhibition, 48 h
Active and inactive are the calls of the source. Rule as the data show it: active = GI50 up to about 1.1 µM and inactive = higher.
GI50 by entry:

Worked examples follow.
COc1cc(C=O)cc(/C=N/c2ccccn2)c1O    2.34 µM (inactive)
COc1ccc(C2=NN(c3ccccc3)C[N+](c3ccc(OC)cc3)=N2)cc1    30.3 µM (inactive)
COC(=O)[C@@H]1O[C@]12[C@@H](CO[Si](C)(C)C(C)(C)C)O[C@@H](n1cc(C)c(=O)[nH]c1=O)[C@@H]2O[Si](C)(C)C(C)(C)C    16.6 µM (inactive)
Cc1nc2ccncc2[nH]1    > 100 µM (inactive)
Cc1cc2c(c(S(=O)(=O)c3ccc(Cl)cc3[N+](=O)[O-])c1)NCCC2    18.3 µM (inactive)

Kindly note the recorded GI50 for C/C(=N\NC(=O)c1ccccc1O)c1c(O)cc(C)oc1=O , which is 45 µM (inactive)

Kindly note the recorded GI50 for c1ccc(-c2sc(-c3ccccc3)c3c2C(c2ccccc2)c2c(-c4ccccc4)sc(-c4ccccc4)c2C3c2ccccc2)cc1 (configuration not stated) , which is > 100 µM (inactive)

* * *

Test system: RPMI-8226
measurement_description: NCI tumour cell line growth inhibition, 48 h
The source made the active and inactive calls. Cut-off read from the data, not from the text of the source: active = GI50 up to about 1.1 µM and inactive = higher.
Choose one outcome from this list and give only that: active, inactive

Previously resolved entries follow.
Cc1cccc(/C=N\NC(=S)N2CCCCC2)n1    active
Cc1ccc(N2C=Nn3c(nc4sc5c(c4c3=O)CCCC5)C2)cc1    inactive
COc1ccccc1/C=C1\C(=O)N(C(=O)Cc2ccccc2)N=C1C    inactive

Please let me know the test result on file for C=CC(CCc1ccc(C(=O)OCC)cc1)c1c(N)nc(N)[nH]c1=O (centres undefined) .
inactive

* * *

System: KM12
measurement_description: NCI tumour cell line growth inhibition, 48 h
Activity calls are given as the source filed them. No stated cut-off is given here; in the data, active = GI50 up to about 1.1 µM and inactive = higher.
Choose one outcome from this list and give only that: 1 (active), -1 (inactive)

Previously resolved entries follow.
C[C@]12CC[C@@H]3c4ccc(O)cc4CC[C@H]3[C@@H]1C/C(=C\c1ccncc1)C2=O    -1
O=S(=O)(O)c1ccc2c(/N=N/c3ccccc3)c(O)ccc2c1    -1

Please let me know the test result on file for Nc1cc(N2CCOCC2)nc(=O)n1-c1ccc(Cl)cc1 .
-1

Please let me know the test result on file for O=C(NC(Cc1ccc(I)cc1)C(=O)O)c1ccc(I)cc1 (stereo not given) .
-1

Please let me know the test result on file for COc1ccc(/C=C2\CCNC2=O)cc1 .
-1

Please let me know the test result on file for CC(=O)OCC1OC(n2c(N)c(C#N)c(-c3cccc(Cl)c3)c(C#N)c2=S)C(OC(C)=O)C(OC(C)=O)C1OC(C)=O (stereo not given) .
-1

Please let me know the test result on file for COC(=O)C(C(=O)OC)C1CC(=O)c2c(Br)sc(Br)c21 (stereo not given) .
-1

* * *

GI50 by entry:
System: SNB-19
measurement_description: NCI tumour cell line growth inhibition, 48 h
Activity calls are given as the source filed them. Rule as the data show it: active = GI50 up to about 1.1 µM and inactive = higher.

Worked examples follow.
Cc1cc([C@H](C#N)c2nc3ccccc3s2)nc(Cl)n1    6.7 µM (inactive)
C/C(CC(=O)Nc1ccc(NC(=O)C/C(C)=N\NC(N)=O)cc1)=N/NC(N)=O    > 100 µM (inactive)
COC(=O)[C@H](Cc1ccccc1)NC(=O)N1CCCN(C(=O)N[C@@H](Cc2ccccc2)C(=O)OC)CCCN(C(=O)N[C@@H](Cc2ccccc2)C(=O)OC)CCC1    27.7 µM (inactive)
COC(=O)C1=CC2C(=O)OC1C1C(=O)NC(=O)C21 (stereo not given)    > 100 µM (inactive)

Kindly note the recorded GI50 for Clc1ccc(C(c2ccc(Cl)cc2)c2ccccn2)cc1 , which is 22.3 µM (inactive)

Data credit: ChEMBL document CHEMBL1201862
